Experiment: Tissue accumulation of Compound 1 at the site of infection (infected skin tissue)
Conditions: mouse, uninfected skin, po, 50 mg/kg
ASSAY ENDPOINT: AUC(0-t) (µg·h/mL)
Number only, in µg·h/mL; omit the unit.

Request: Tell me the measured AUC(0-t) of "CCC(=O)/N=C1\[C@H](C)C[C@@]2(C)OC/C(=N/OCc3ccc(-c4nc(N)cs4)cn3)CO[C@H]([C@H]1C)[C@](C)(O)[C@@H](CC)OC(=O)[C@@](C)(F)C(=O)[C@H](C)[C@H]2O[C@@H]1O[C@H](C)C[C@H](N(C)C)[C@H]1O" , please.
Result: 54600

* * *

Assay: Tissue accumulation of Compound 1 at the site of infection (infected skin tissue)
Conditions: mouse, plasma, po, 50 mg/kg
ASSAY ENDPOINT: Cmax (µg/mL)
Value expressed in µg/mL; do not type the unit.

Request: Fill blank: measured Cmax of the compound "CCC(=O)/N=C1\[C@H](C)C[C@@]2(C)OC/C(=N/OCc3ccc(-c4nc(N)cs4)cn3)CO[C@H]([C@H]1C)[C@](C)(O)[C@@H](CC)OC(=O)[C@@](C)(F)C(=O)[C@H](C)[C@H]2O[C@@H]1O[C@H](C)C[C@H](N(C)C)[C@H]1O" is ____.
Result: 5120

* * *

System: H. influenzae
Experiment: MIC by micro-dilution method, H. influenzae isolates
Assay type: cell-based, Haemophilus influenzae
Conditions: H. influenzae isolate 33929; examples of U.S. Pat. No. 6,878,691 for reference
Protocol: Susceptibility tests can be used to quantitatively measure the in vitro activity of an antimicrobial agent against a given bacterial isolate. Compounds are tested for in vitro antibacterial activity by a micro-dilution method. Minimal Inhibitory Concentration (MIC) is determined in 96 well microtiter plates utilizing the appropriate broth medium for the observed bacterial isolates. […]
ASSAY ENDPOINT: MIC H. influenzae 33929 (µg/mL)
Your answer is read as µg/mL, so omit the unit and give the number.

Worked examples follow.
MOLECULE	TESTED TARGET	ASSAY ENDPOINT	RESULT UNIT	VALUE MEASURED
CCNC(=O)c1cccc(-c2cc(CO/N=C3\CO[C@@H]4[C@@H](C)C(=NC(C)=O)[C@H](C)C[C@@](C)(OC3)[C@H](O[C@@H]3O[C@H](C)C[C@H](N(C)C)[C@H]3O)[C@@H](C)C(=O)[C@@H](C)C(=O)O[C@H](CC)[C@@]4(C)O)on2)n1 [Compound 195, reference compound]	H. influenzae	MIC H. influenzae 33929	µg/mL	32
CC[C@H]1OC(=O)[C@H](C)C(=O)[C@H](C)[C@@H](O[C@@H]2O[C@H](C)C[C@H](N(C)C)[C@H]2O)[C@@]2(C)C[C@@H](C)C(=NC(C)=O)[C@H](C)[C@@H](OC/C(=N\OCc3ccc(-c4nnc(N)s4)nc3)CO2)[C@]1(C)O [Compound 234, reference compound]	H. influenzae	MIC H. influenzae 33929	µg/mL	4

Here is another molecule to look at.
Request: # query: MIC H. influenzae 33929 of entry CC[C@H]1OC(=O)[C@@](C)(F)C(=O)[C@H](C)[C@@H](O[C@@H]2O[C@H](C)C[C@H](N(C)C)[C@H]2O)[C@@]2(C)C[C@@H](C)C(=NC(C)=O)[C@H](C)[C@@H](OC/C(=N\OCc3ccc(-c4cccc(N)n4)s3)CO2)[C@]1(C)O [Compound 173, reference compound]
Result: 4

Sourced from patent US20130165641A1
